Experiment: Lipophilicity, log D of the compound by chromatography
Type: physicochemical
endpoint_label: chromatographic logD

sample_smiles	recorded_value
Cc1cn2nc([C@@H]3CCCCN3C(=O)c3cc(Cl)ccc3NS(C)(=O)=O)cc2nc1N1CC[C@@H](N)C1	2
Cc1ccc(NS(C)(=O)=O)c(C(=O)N2CCCC[C@H]2c2cc3[nH]c(C)c(C)c(=O)n3n2)c1	1.7
Cc1[nH]c2cc([C@@H]3CCCCN3C(=O)c3ccccc3N(C)S(C)(=O)=O)nn2c(=O)c1C	1.1
Cc1cn2nc([C@@H]3CCCCN3C(=O)c3cc(Cl)ccc3NS(C)(=O)=O)cc2nc1N1CC[C@H](C#N)C1	3.6
Cc1[nH]c2cc([C@@H]3CCCCN3C(=O)c3ccc(F)cc3NS(C)(=O)=O)nn2c(=O)c1C	1.5

(I) Cc1cn2nc([C@@H]3CCCCN3C(=O)c3cc(Cl)ccc3NS(C)(=O)=O)cc2nc1N1CC(C#N)C1
(II) Cc1cn2nc([C@@H]3CCCCN3C(=O)c3cc(Cl)ccc3NS(C)(=O)=O)cc2nc1N1CC(N)C1
Identify the item whose chromatographic logD is the smaller number: I or II Kindly give the label for the entry you pick.
II

---

Assay: Lipophilicity, log D of the compound by chromatography
Assay type: physicochemical
endpoint_label: chromatographic logD

(I) CC(=O)Nc1ccccc1C(=O)N1CCCC[C@H]1c1cc2[nH]c(C)c(C)c(=O)n2n1
(II) Cc1ccc(NS(C)(=O)=O)c(C(=O)N2CCCC[C@H]2c2cc3nc(C)cc(C)n3n2)c1
(III) Cc1cn2nc([C@@H]3CCCCN3C(=O)c3cc(Cl)ccc3NS(C)(=O)=O)cc2nc1N1CCCC1
(IV) COC(=O)Nc1ccccc1C(=O)N1CCCC[C@H]1c1cc2[nH]c(C)c(C)c(=O)n2n1
Descending sort on chromatographic logD required. Arrange the labels as the request states and list them.
III, II, IV, I
(III: 4.4, II: 2.7, IV: 1.3, I: 0.88)

---

Experiment: Terminal half life in po dosed beagle dog
Format: ADME, organism-based, Canis lupus familiaris
Conditions: in vivo, read-out: beta t1/2 (converted)
endpoint_label: half-life (h)
Use h as the unit, but write only the number.

Using the record for Cc1cn2nc([C@@H]3CCCCN3C(=O)c3cc(Cl)ccc3NS(C)(=O)=O)cc2nc1N1CC[C@H](N)C1 [PRESATOVIR] , state its measured half-life.
8.9

---

Experiment: Volume of distribution at steady state in Sprague-Dawley rat
Format: ADME, organism-based
Details: in vivo, read-out: Vdss
endpoint_label: Vd (L/kg)
Use L/kg as the unit, but write only the number.

Using the record for Cc1cn2nc([C@@H]3CCCCN3C(=O)c3cc(Cl)ccc3NS(C)(=O)=O)cc2nc1N1CC[C@H](N)C1 , state its measured Vd.
9.75

---

Experiment: Lipophilicity, log D of the compound by chromatography
Format: physicochemical
endpoint_label: chromatographic logD

sample_smiles	chromatographic logD
Cc1cn2nc([C@@H]3CCCCN3C(=O)c3cc(Cl)ccc3NS(C)(=O)=O)cc2nc1N1CC[C@H](O)C1	2.9
Cc1cn2nc([C@@H]3CCCCN3C(=O)c3ccccc3NS(C)(=O)=O)cc2nc1C	3
Cc1ccc(NS(C)(=O)=O)c(C(=O)N2CCCC[C@H]2c2cc3nc(C)c(C)cn3n2)c1	3.1

(P) Cc1ccc(NS(C)(=O)=O)c(C(=O)N2CCCC[C@H]2c2cc3nc(C4CC4)c(C)cn3n2)c1
(Q) Cc1cn2nc([C@@H]3CCCCN3C(=O)c3cc(Cl)ccc3NS(C)(=O)=O)cc2nc1N1CC[C@H](N)C1
(R) Cc1[nH]c2cc([C@@H]3CCCCN3C(=O)c3cccc(F)c3NS(C)(=O)=O)nn2c(=O)c1C
Arrange these 3 compounds in increasing order of chromatographic logD. Arrange the labels as the request states and list them.
R, Q, P
(R: 1.3, Q: 2, P: 4.1)

---

Assay: Volume of distribution at steady state in cynomolgus monkey
Type: ADME, organism-based, Macaca fascicularis
Conditions: in vivo, read-out: Vdss
endpoint_label: Vd (L/kg)
Use L/kg as the unit, but write only the number.

Using the record for Cc1cn2nc([C@@H]3CCCCN3C(=O)c3cc(Cl)ccc3NS(C)(=O)=O)cc2nc1N1CC[C@H](N)C1 , state its measured Vd.
4.95

---

Assay: Oral bioavailability in beagle dog at 4 mg/kg
Assay type: ADME, organism-based, Canis lupus familiaris
Conditions: in vivo
endpoint_label: bioavailability (%)
Use % as the unit, but write only the number.

Using the record for Cc1cn2nc([C@@H]3CCCCN3C(=O)c3cc(Cl)ccc3NS(C)(=O)=O)cc2nc1N1CC[C@H](N)C1 [PRESATOVIR] , state its measured bioavailability.
130

---

Test: Clearance in beagle dog at 1 mg/kg, iv administered as infusion over 30 mins
Type: ADME, organism-based, Canis lupus familiaris
Design: dose 1 mg/kg, route intravenous
Conditions: in vivo
endpoint_label: clearance (mL/min/kg)
Use mL/min/kg as the unit, but write only the number.

Using the record for Cc1cn2nc([C@@H]3CCCCN3C(=O)c3cc(Cl)ccc3NS(C)(=O)=O)cc2nc1N1CC[C@H](N)C1 [PRESATOVIR] , state its measured clearance.
3.83

---

Assay: Terminal half life in po dosed cynomolgus monkey
Type: ADME, organism-based, Macaca fascicularis
Settings: in vivo, read-out: beta t1/2 (converted)
endpoint_label: half-life (h)
Use h as the unit, but write only the number.

Using the record for Cc1cn2nc([C@@H]3CCCCN3C(=O)c3cc(Cl)ccc3NS(C)(=O)=O)cc2nc1N1CC[C@H](N)C1 , state its measured half-life.
10

---

Assay: Lipophilicity, log D of the compound by chromatography
Type: physicochemical
endpoint_label: chromatographic logD

Examples with answers:
sample_smiles	recorded_value
Cc1ccc(NS(C)(=O)=O)c(C(=O)N2CCCC[C@H]2c2cc3nc(C)c(C)c(C)n3n2)c1	3.1
Cc1[nH]c2cc([C@@H]3CCCCN3C(=O)c3cc(-c4ccccc4)ccc3NS(C)(=O)=O)nn2c(=O)c1C	2.6

(1) Cc1nc2cc([C@@H]3CCCCN3C(=O)c3ccccc3NS(C)(=O)=O)nn2c(C)c1C
(2) Cc1[nH]c2cc([C@@H]3CCCCN3C(=O)c3ccccc3NS(=O)(=O)C3CC3)nn2c(=O)c1C
Identify the item whose chromatographic logD is the smaller number: 1 or 2 Kindly give the label for the entry you pick.
2
(2: 1.6, 1: 2.7)

---

Test: Lipophilicity, log D of the compound by chromatography
Type: physicochemical
endpoint_label: chromatographic logD

sample_smiles	recorded_value
Cc1cn2nc([C@@H]3CCCCN3C(=O)c3cc(Cl)ccc3NS(C)(=O)=O)cc2nc1N1CC[C@@H](O)C1	2.8
CNc1c(C)c(C)nc2cc([C@@H]3CCCCN3C(=O)c3cc(C)ccc3NS(C)(=O)=O)nn12	2.8
Cc1cn2nc([C@@H]3CCCCN3C(=O)c3cc(Cl)ccc3NS(C)(=O)=O)cc2nc1N1CC[C@@H](C#N)C1	3.7
CNc1c(C)c(C)nc2cc([C@@H]3CCCCN3C(=O)c3ccccc3NS(C)(=O)=O)nn12	2.6

---

Test: Lipophilicity, log D of the compound by chromatography
Assay type: physicochemical
endpoint_label: chromatographic logD

Examples with answers:
sample_smiles	endpoint_label	recorded_value
Cc1[nH]c2cc([C@@H]3CCCCN3C(=O)c3ccccc3NS(C)(=O)=O)nn2c(=O)c1C	chromatographic logD	1.3
Cc1[nH]c2cc([C@@H]3CCCCN3C(=O)c3ccccc3)nn2c(=O)c1C	chromatographic logD	1.4

(I) Cc1[nH]c2cc([C@@H]3CCCCN3C(=O)c3cc(Cl)ccc3NS(C)(=O)=O)nn2c(=O)c1C
(II) Cc1[nH]c2cc([C@@H]3CCCCN3C(=O)c3ccccc3O)nn2c(=O)c1C
Identify the item whose chromatographic logD is the smaller number: I or II Kindly give the label for the entry you pick.
II
(II: 1.1, I: 1.9)
